molecular target: Papain (Carica papaya) (UniProt P00784); assay: Evaluated for inhibitory activity against papain; No inhibition
Sequence (P00784 whole entry): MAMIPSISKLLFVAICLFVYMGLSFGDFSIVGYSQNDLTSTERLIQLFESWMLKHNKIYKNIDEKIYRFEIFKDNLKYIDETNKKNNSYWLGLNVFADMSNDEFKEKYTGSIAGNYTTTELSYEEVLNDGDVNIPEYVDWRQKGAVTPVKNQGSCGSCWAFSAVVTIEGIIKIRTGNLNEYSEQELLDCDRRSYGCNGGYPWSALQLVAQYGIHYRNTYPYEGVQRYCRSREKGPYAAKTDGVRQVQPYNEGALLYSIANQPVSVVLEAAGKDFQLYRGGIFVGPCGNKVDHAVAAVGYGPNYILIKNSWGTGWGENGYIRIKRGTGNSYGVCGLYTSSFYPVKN
Active and inactive are the calls of the source. The rule behind the calls is not given here. Non-standard residues stand in square brackets, D forms with d. Residues, ends and D or L forms follow the SMILES beside them. *: point of attachment. Cbz = O=C(OCc1ccccc1)*; OBn = c1ccc(CO*)cc1; azaGly = NNC(=O)O
measurement name: NI

[[record]]
molecule = "CC(C)C[C@H](NC(=O)OCc1ccccc1)C(=O)N[C@@H](Cc1ccccc1)C(=O)NNC(=O)N[C@H](C(=O)OCc1ccccc1)C(C)C (Cbz-LF[azaGly]V-OBn)"
observed_value = "inactive"

[[record]]
molecule = "CC(C)C(NC(=O)NNC(=O)OC(C)(C)C)C(=O)OCc1ccccc1 (centres undefined)"
observed_value = "inactive"

[[record]]
molecule = "CC(C)C[C@H](NC(=O)[C@H](CCCN=C(N)N)NC(=O)OCc1ccccc1)C(=O)N[C@@H](Cc1ccccc1)C(=O)NNC(=O)N[C@H](C(=O)OCc1ccccc1)C(C)C (Cbz-RLF[azaGly]V-OBn)"
observed_value = "inactive"

[[record]]
molecule = "CC(C)C[C@H](N)C(=O)N[C@H](C(=O)NNC(=O)N[C@H](C(=O)OCc1ccccc1)C(C)C)C(C)C (HELM PEPTIDE1{L.V.[O=C(NN[*:1])[*:2]].V.[c1ccc(CO[*:1])cc1]}$$$$V2.0)"
observed_value = "inactive"


###

Target: Cathepsin K (Homo sapiens, UniProt P43235)
Sequence (P43235 whole entry): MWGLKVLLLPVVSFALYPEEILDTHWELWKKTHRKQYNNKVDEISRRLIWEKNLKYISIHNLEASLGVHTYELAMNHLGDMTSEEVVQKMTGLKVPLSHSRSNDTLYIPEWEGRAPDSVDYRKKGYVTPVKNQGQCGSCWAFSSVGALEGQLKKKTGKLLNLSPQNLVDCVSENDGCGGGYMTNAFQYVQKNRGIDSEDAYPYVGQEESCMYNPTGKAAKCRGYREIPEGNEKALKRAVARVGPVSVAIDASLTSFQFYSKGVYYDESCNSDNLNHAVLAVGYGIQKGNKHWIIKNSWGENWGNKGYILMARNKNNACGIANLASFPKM
pKi: −log10 of the molar value. Non-standard residues stand in square brackets, D forms with d. Residues, ends and D or L forms follow the SMILES beside them. *: point of attachment. Cbz = O=C(OCc1ccccc1)*; azaGly = NNC(=O)O
measurement name: pKi

[[record]]
compound = "CC[C@H](C)[C@H](NC(=O)NNC(=O)[C@H](Cc1ccc(OC)cc1)NC(=O)[C@H](CC(C)C)NC(=O)[C@H](C)NC(=O)OCc1ccccc1)C(=O)N[C@H](C(=O)OC)C(C)C (Cbz-ALY(Me)[azaGly]IV-OMe)"
measured_target = "Cathepsin K (Homo sapiens, UniProt P43235)"
measurement_name = "pKi"
observed_value = 8.07


a: CC(C)C[C@H](NC(=O)[C@H](CCCNC(=N)N)NC(=O)OCc1ccccc1)C(=O)N[C@H](C(=O)NNC(=O)N[C@@H](C)C(=O)NCC(N)=O)C(C)C (HELM PEPTIDE1{[O=C(OCc1ccccc1)[*:2]].R.L.V.[O=C(NN[*:1])[*:2]].A.G.[am]}$$$$V2.0)
b: CC(C)C[C@H](NC(=O)[C@H](CCCNC(=N)N)NC(=O)OCc1ccccc1)C(=O)N[C@H](C(=O)NNC(=O)N[C@H](C(=O)N[C@@H](C)C(N)=O)C(C)C)C(C)C (HELM PEPTIDE1{[O=C(OCc1ccccc1)[*:2]].R.L.V.[O=C(NN[*:1])[*:2]].V.A.[am]}$$$$V2.0)
c: CC[C@H](C)[C@H](NC(=O)NNC(=O)[C@H](Cc1ccccc1)NC(=O)[C@H](CC(C)C)NC(=O)[C@H](C)NC(=O)OCc1ccccc1)C(=O)N[C@H](C(=O)OC)C(C)C (Cbz-ALF[azaGly]IV-OMe)
Inquiry: Ascending sort, pKi. Answer format: the labels, in the requested order.
Reply text: a, b, c
